target: HIV capsid protein (Human immunodeficiency virus type 1 group M subtype B); assay: Isothermal titration calorimetry (ITC), whole capsid protein; type: binding; conditions: dissociation constant, single molecule binds to dimeric capsid protein; estimated
Reported Endpoint: Kd (nM)
Field: numeric (nM). Do not append units.

Looking up CCOC(=O)c1ccc(Nc2nc(-c3ccncc3)nc3ccccc23)cc1 [AMR.346] , I see its Kd listed as 120

* * *

biological target: UniProtKB P12493; assay: Isothermal titration calorimetry (ITC), C-terminal part; assay type: binding; details: dissociation constant, one ligand binds to monomer of C-terminal part; 25 °C, pH 6.0
Reported Endpoint: Kd (µM)
Your answer is read as µM, so omit the unit and give the number.

Per the reported UniProtKB P12493 data, CCOC(=O)c1ccc(Nc2nc(-c3ccncc3)nc3ccccc23)cc1 has Kd of 0.05

* * *

biological target: CA (Human immunodeficiency virus type 1 group M subtype B, UniProt P12493); construct: a fusion protein of CA with glutathione-S-transferase (CA-GST); assay: ALPHA screen (AlphaScreen): inhibition of CAI binding to CA; parameters: species or system HIV-1; details: CAI-biotin peptide / CA-GST; compounds screened at 0.5-100 µM; read-out: α screen IC50
Quick list: pIC50 per entry.
The scale used: pIC50 is minus the common logarithm of the concentration in molar units.

// known answers, use as guide
[
  {
    "Sample Smiles": "CN(C)c1cccc(Nc2nc(-c3ccncc3)nc3ccccc23)c1",
    "Result Value": 3.89
  },
  {
    "Sample Smiles": "O=[N+]([O-])c1ccc(O)c(Nc2nc(-c3cccnc3)nc3ccccc23)c1",
    "Result Value": 5.68
  },
  {
    "Sample Smiles": "O=[N+]([O-])c1cc(F)ccc1Nc1nc(-c2ccncc2)nc2ccccc12",
    "Result Value": 3.77
  },
  {
    "Sample Smiles": "COc1ccc(Nc2nc(-c3ccc(Cl)cc3)nc3ccccc23)cc1OC",
    "Result Value": 4.26
  },
  {
    "Sample Smiles": "Cn1nnc2cc(Nc3nc(-c4ccc(C(F)(F)F)cc4)nc4ccccc34)ccc21",
    "Result Value": 4.55
  },
  {
    "Sample Smiles": "CN(C)c1ccc(Nc2nc(-c3ccncc3)nc3ccccc23)cc1",
    "Result Value": 4.81
  },
  {
    "Sample Smiles": "c1cncc(-c2nc(Nc3ccc(-n4ccnc4)cc3)c3ccccc3n2)c1",
    "Result Value": 4.50
  },
  {
    "Sample Smiles": "c1ccc2c(Nc3ccc(-n4ccnc4)cc3)nc(-c3ccncc3)nc2c1",
    "Result Value": 4.43
  },
  {
    "Sample Smiles": "c1ccc2c(Nc3ccc4[nH]nnc4c3)nc(-c3ccncc3)nc2c1",
    "Result Value": 5.30
  },
  {
    "Sample Smiles": "Clc1ccc(-c2nc(Nc3ccc4[nH]nnc4c3)c3ccccc3n2)c(Cl)c1",
    "Result Value": 5.70
  }
]

Lab note: O=[N+]([O-])c1ccc(-c2nc(Nc3ccc4[nH]nnc4c3)c3ccccc3n2)cc1 gave pIC50 of 5.62

Just so you know, measured pIC50 for Cc1ccc(Nc2nc(-c3cccnc3)nc3ccccc23)c(O)c1 came out at 3.75

// sample CNc1ccc([N+](=O)[O-])cc1Nc1nc(-c2cccnc2)nc2ccccc12 , its pIC50 was 6.05

Looking up Clc1ccc(Cl)c(Nc2nc(-c3cccnc3)nc3ccccc23)c1 , I see its pIC50 listed as 4.66

Taken from patent EP2769723A1.
